# testDetails: Toxicity (LD50; Litchfield and Wilcoxon)
# appliedConditions: in vivo; Table I; route not given; read-out: LD50
Output Satisfied for records whose LD50 is lower than 500 µmol/kg, Not satisfied for records at or above 500 µmol/kg.

compound: CCc1nc2cccc(C)n2c(=O)c1C.Cl
groupLabel: Satisfied

Task item: # strict comparison: is reported LD50 < 500 µmol/kg? input = CCc1c(C)nc2cccc(C)n2c1=O.Cl [Compound A]
Reply: Not satisfied

Task item: Please give the result for `Cc1nc2cccc(C)n2c(=O)c1C.Cl` too.
Reply: Not satisfied

Task item: Please give the result for CCc1c(C)nc2ccccn2c1=O [Compound B] too.
Reply: Not satisfied

Task item: Please give the result for `CCCc1c(C)nc2cccc(C)n2c1=O.Cl` too.
Reply: Satisfied

====

# testDetails: Toxicity (LD50; Litchfield and Wilcoxon)
# appliedConditions: in vivo, iv; Table III; i.v.; read-out: LD50 i.v.
measuredProperty: LD50 (mg/kg)
Reply numerically in mg/kg, unit not repeated.

In the examples that follow, each entry is paired with its recorded LD50.
compound: CCc1c(C)nc2cccc(C)n2c1=O.Cl [Compound A]
unit: mg/kg
LD50: 190

compound: CCc1c(C)nc2cc(C)cc(C)n2c1=O [Compound C]
unit: mg/kg
LD50: 120

Alright, here's another compound for you.
Task item: # get_value(readout='LD50', item= CCc1c(C)nc2ccccn2c1=O [Compound B] )
Reply: 280

====

# testDetails: Toxicity (LD50; Litchfield and Wilcoxon)
# appliedConditions: in vivo, po; Table IV; rats; p.o.; read-out: LD50 rats p.o.
# Text: Toxicity: Litchfield J. T. and Wilcoxon: J. Pharmacol. Sci 54 (1965) 888.
measuredProperty: LD50 (mg/kg)
Reply numerically in mg/kg, unit not repeated.

molecule: CCCc1c(C)nc2cccc(C)n2c1=O.Cl
quantitativeResult: 1000

Task item: # get_value(readout='LD50', item= `CCc1c(C)nc2c(C)cccn2c1=O.Cl` )
Reply: 820

Task item: Please give the result for `CCc1c(C)nc2ccc(Cl)cn2c1=O.Cl` too.
Reply: 1100

====

# testDetails: Toxicity (LD50; Litchfield and Wilcoxon)
# appliedConditions: in vivo; read-out: LD50
measuredProperty: LD50

Task item: # get_value(readout='LD50', item= CCOC(=O)c1c[n+](C)c2n(c1=O)C(C)CCC2 (stereo not shown) [Probon, reference compound] )
Reply: 607 µmol/kg

====

# testDetails: Toxicity (LD50; Litchfield and Wilcoxon)
# appliedConditions: in vivo, iv; read-out: LD50 rats i.v.
measuredProperty: LD50
Field note: include the unit after the figure.

Task item: # get_value(readout='LD50', item= CCOC(=O)c1c[n+](C)c2n(c1=O)C(C)CCC2 (stereo not shown) [Probon, reference compound] )
Reply: 220 mg/kg

====

// LD50 lookup, one value per entry
# testDetails: Toxicity (LD50; Litchfield and Wilcoxon)
# appliedConditions: in vivo, sc; Table IV; rats; s.c.; read-out: LD50 rats s.c.
Structures can show the parent of a compound that is named as a salt.
Reply numerically in mg/kg, unit not repeated.

compound: CCCc1c(C)nc2cccc(C)n2c1=O.Cl
LD50, mg/kg: 1200

Task item: # get_value(readout='LD50', item= CCc1c(C)nc2ccc(C)cn2c1=O [HCl] )
Reply: 800

The origin of these recorded values is patent US4291036A.
